system: AP activity in ECC-1 cells; assay: Alkaline phosphatase (AP) assay in ECC-1 uterine cells co-treated with 500 pM E2, antagonist mode; assay type: cell-based, human; conditions: ECC-1 cells, co-treated with 500 pM E2
quantity: AP Antagonist Act. (% of E2)

molecule	AP Antagonist Act. (% of E2)
C[C@@H]1Cc2c([nH]c3ccccc23)[C@@H](c2ccc(OCCN3CC(CF)C3)cc2)N1CC(C)(C)F	2.5 % of E2
CCCN1CC(Oc2ccc([C@@H]3c4[nH]c5ccccc5c4C[C@@H](C)N3CC(C)(C)F)cc2)C1	1.96 % of E2
CCCN1CC(Oc2ccc([C@@H]3c4[nH]c5ccccc5c4C[C@@H](C)N3CC(C)(C)F)cc2F)C1	3.15 % of E2

For the next question, use this molecule.
Entry C[C@@H]1Cc2c([nH]c3ccccc23)[C@@H](c2c(F)cc(OCCN3CC(CF)C3)cc2F)N1CC(C)(C)F [Compound D, reference compound] : reported AP Antagonist Act. (% of E2) = ?
4.07 % of E2
